Test system: NOMO1
Experiment: cell viability relative to DMSO control; higher = less cytotoxic
Conditions: RPMI 5 mM glucose + 10% dialyzed FBS; 48 h; 1.71 µM
measured-endpoint: cell viability (%)
# unit: % | format: bare number

Examples with their reported cell viability follow.
compound	cell viability, %
C[S+](=O)([O-])c1ccc(Oc2cc(F)cc(C#N)c2)c2c1[C@H](O)C(F)(F)C2	125
CN(C)CCN1C(=O)c2cccc3cc(N)cc(c23)C1=O	108

Consider now this further compound.
The measured cell viability associated with CN(C)C1=C(Br)C=C(C=C1)C\2NC3=C(\C4=C2C(=O)CC(C)(C)C4)C5=CC=CC=C5C=C3 (stereo not drawn) reads 89.3

Sourced from the supplement of paper PMC11451515
